Examples of binders with documented log10 IC50 follow.
experimentalSystem: T1, HLA-DR3 molecule (DRB1*0301) (human)
T1 chain 1: not shown
T1 chain 2: not shown
test: competition ELISA vs biotin-MT 2-16
Note the log scale: values are log10 of IC50 expressed in nM.

Illustrative cases are given below, each with its answer.
DLYCYEQLNDSSEEEDEIDG (modifications not checked) [E7(21-40)]
3.66
TLHEYMLDLQPETTDLYCYEQ (modifications not checked) [E7(7-27)]
2.75

Query: Requested field: log10 IC50. Item: LDLQPETTDLYCYEQ (modifications not checked) [E7 13-27]
Result: 3.54

Query: Requested field: log10 IC50. Item: ERPRKLPQLCTELQTTIHDII (modifications not checked) [E6(14-34)]
Result: 2.74

Query: Requested field: log10 IC50. Item: LRLCVQSTHVDIRTLEDLLMGTL (modifications not checked) [E7(65-87)]
Result: 2.65

Query: Requested field: log10 IC50. Item: MHQKRTAMFQDPQERPRKLPQL (modifications not checked) [E6(1-22)]
Result: 3.54

Query: Requested field: log10 IC50. Item: QQYNKPLCDLLIRCI (modifications not checked) [E6 97-111]
Result: 3.09
